Data credit: paper PMC4682634

target: endogenous BK channel (Rattus norvegicus); construct: endogenous BK in A7r5 smooth muscle cells; assay: whole-cell patch-clamp, paxilline-sensitive current density in A7r5 cells
Sequence (Q62976 whole entry): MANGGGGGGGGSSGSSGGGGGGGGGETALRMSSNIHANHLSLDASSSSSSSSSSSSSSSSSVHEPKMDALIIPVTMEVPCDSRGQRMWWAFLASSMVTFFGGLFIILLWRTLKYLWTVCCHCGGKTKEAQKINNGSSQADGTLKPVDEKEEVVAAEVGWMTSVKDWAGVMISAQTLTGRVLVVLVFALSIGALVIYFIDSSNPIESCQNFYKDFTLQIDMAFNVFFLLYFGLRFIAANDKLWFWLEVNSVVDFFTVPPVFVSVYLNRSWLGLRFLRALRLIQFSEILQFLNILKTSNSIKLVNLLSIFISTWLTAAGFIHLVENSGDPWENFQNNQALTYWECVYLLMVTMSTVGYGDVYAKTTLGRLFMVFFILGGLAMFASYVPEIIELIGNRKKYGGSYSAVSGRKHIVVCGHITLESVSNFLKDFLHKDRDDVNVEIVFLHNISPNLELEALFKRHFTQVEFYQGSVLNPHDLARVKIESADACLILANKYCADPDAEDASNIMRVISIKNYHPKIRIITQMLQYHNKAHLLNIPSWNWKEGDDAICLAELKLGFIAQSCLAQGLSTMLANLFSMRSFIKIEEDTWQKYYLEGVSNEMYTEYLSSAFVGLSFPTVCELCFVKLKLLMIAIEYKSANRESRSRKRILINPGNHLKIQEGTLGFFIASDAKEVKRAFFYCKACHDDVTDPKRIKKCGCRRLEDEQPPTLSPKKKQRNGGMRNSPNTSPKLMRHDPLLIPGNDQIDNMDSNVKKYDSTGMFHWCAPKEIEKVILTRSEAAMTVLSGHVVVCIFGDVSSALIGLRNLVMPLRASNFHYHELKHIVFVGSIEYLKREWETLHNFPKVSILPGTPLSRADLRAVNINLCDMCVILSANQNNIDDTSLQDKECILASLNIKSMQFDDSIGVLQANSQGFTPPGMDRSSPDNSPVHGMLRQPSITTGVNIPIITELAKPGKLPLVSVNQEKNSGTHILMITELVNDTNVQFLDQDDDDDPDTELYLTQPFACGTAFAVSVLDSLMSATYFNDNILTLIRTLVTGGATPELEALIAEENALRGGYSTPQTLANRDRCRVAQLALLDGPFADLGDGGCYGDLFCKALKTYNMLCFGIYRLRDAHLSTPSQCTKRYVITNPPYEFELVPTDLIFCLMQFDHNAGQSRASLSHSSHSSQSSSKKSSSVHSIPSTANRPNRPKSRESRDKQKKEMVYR
property_label: EC50

-- ask I am curious: what EC50 value has been reported for COc1cc(/C=C/C(=O)CC(=O)/C=C/c2ccc(O)c(OC)c2)ccc1O ?
-- reply 6.93 µM
